system: Fusarium graminearum; format: in vivo; details: in vivo
measurement.kind: efficacy (%)
Just the number in %, nothing appended.

# example entries with known answers
O=C(CC1CC1)Nc1cc(-c2c(-c3ccc(F)cc3)nn3c2OCCC3)ccn1
86
O=C(Nc1cc(-c2c(-c3ccc(F)cc3F)nn3c2OCCC3)ccn1)C1CCOCC1
100
CC(C)C(=O)Nc1cc(-c2c(-c3ccc(F)cc3)nn3c2OCCC3)ccn1
100

Next, consider the following compound.
Param item: CC(C)C(=O)Nc1cc(-c2c(-c3ccc(F)cc3)nn3c2OCCC3C)ccn1 (stereo not shown) ; param system: Fusarium graminearum; output efficacy: 100
